system: Hs-578T; experiment: NCI tumour cell line growth inhibition, 48 h
Calls of active or inactive are those of the source. No stated cut-off is given here; in the data, active = GI50 up to about 1.1 µM and inactive = higher.
Property Label: GI50

1) O=c1c2ccccc2sc2nc(CCl)nn12: 2.17 µM (inactive)
2) O=c1[nH]nc(-c2ccccc2)n1/N=C\c1ccccc1: > 100 µM (inactive)
3) CCn1c(SCC(=O)NNC(=S)Nc2ccc(C)cc2)nc2ccccc2c1=O: > 100 µM (inactive)
4) O=C1c2ccccc2-c2[nH]c3cn[nH]c(=O)c3c21: 64.9 µM (inactive)
5) NC(Cc1ccc(OCc2ccccc2)cc1)C(=O)NC(Cc1ccccc1)C(=O)Oc1c(Cl)c(Cl)c(Cl)c(Cl)c1Cl (stereo unspecified): 14 µM (inactive)
6) C=CCOC(=O)N1c2ccc(O)cc2[C@@]23O[C@@]24[C@@H]1C#C/C=C\C#C[C@]3(O)C(OC)(OC)C[C@@H]4C: 37.8 µM (inactive)
7) S=C1N=C(Cl)/C(=C\c2ccccc2)N1: > 100 µM (inactive)
8) CC1C(C#N)(C#N)C(C#N)=C(N)C1(Cl)[N+](=O)[O-] (stereo unspecified): 16.1 µM (inactive)
9) CC1(C)CC(O)C(C)(C)[C@@H](O)C1 (stereo partly specified): > 100 µM (inactive)
10) C[C@]12CC[C@H]3[C@@H](CCC4=CC(=O)CC[C@@]43C)[C@@H]1CC[C@@H]2C(=O)Nc1ccc([N+](=O)[O-])c(C(F)(F)F)c1: 18.2 µM (inactive)
11) O=C1C(=Cc2cccc(O)c2)N=C(c2ccccc2)N1n1c(-c2ccccc2)nc2ccccc2c1=O: 14.3 µM (inactive)
12) COCN1C(=O)[C@@H]2C[C@@H](OC/C=C/CBr)CN2C(=O)c2ccccc21: 26.5 µM (inactive)
13) Clc1ccc(/C=C/c2nc3ccccc3s2)cc1Cl: 23.7 µM (inactive)
14) C[n+]1c(-c2ccc(/C=N\NC(=O)c3ccc(C(=O)N/N=C/c4ccc(-c5cn6ccsc6[n+]5C)cc4)cc3)cc2)cn2ccsc21: 19.9 µM (inactive)
15) O=C(CC(C(=O)c1cccs1)c1ccsc1)c1ccc(Cl)cc1 (stereo unspecified): > 100 µM (inactive)
16) CN1C(c2ccccc2)CC(=NOCc2ccccc2)CC1c1ccccc1 (stereo unspecified): 36 µM (inactive)
17) CC(C)(C)N1CC1CNC(=O)C(=O)NCC1CN1C(C)(C)C (stereo unspecified): 91 µM (inactive)
18) C[N+](C)(C)CCN(Cc1cccs1)c1ccccn1: 74.5 µM (inactive)
19) C=C1N(C=O)C(C)(C)N(O)C1(C)C: > 100 µM (inactive)
20) Cc1nc([N+](=O)[O-])cn1-c1nc2ccccn2c1[N+](=O)[O-]: > 100 µM (inactive)
21) CN(/N=C/c1ccc(Cl)c(Cl)c1)C1=NCCCCN1: 61 µM (inactive)

###

Recorded GI50 for the following molecules
tested on: RPMI-8226; experiment: NCI tumour cell line growth inhibition, 48 h
The source made the active and inactive calls. No stated cut-off is given here; in the data, active = GI50 up to about 1.1 µM and inactive = higher.
Property Label: GI50

1. C#CCOCC12C=CC(O1)C1C(=O)OCC12 (stereo not drawn): > 100 µM (inactive)
2. CCn1c(SCC(=O)NNC(=S)Nc2ccc(C)cc2)nc2ccccc2c1=O: 70.1 µM (inactive)
3. O=C(O)CC(NC(=O)/C(=C/c1ccccc1)NC(=O)c1ccccc1)C(=O)O (stereo not drawn): > 100 µM (inactive)
4. NS(=O)(=O)c1nnc(NS(=O)(=O)c2ccc(F)cc2)s1: > 100 µM (inactive)
5. CSc1nc(NC2OC(COC(C)=O)C(OC(C)=O)C(OC(C)=O)C2OC(C)=O)c(/N=C/C=N/c2c(NC3OC(COC(C)=O)C(OC(C)=O)C(OC(C)=O)C3OC(C)=O)nc(SC)[nH]c2=O)c(=O)[nH]1 (stereo not drawn): > 100 µM (inactive)
6. COc1ccc(/C=C2\CN(C)CC3C2=NN(c2ccccc2)C3c2ccc(OC)cc2)cc1 (stereo not drawn): > 100 µM (inactive)
7. C[C@]12CC[C@H]3[C@@H](CCC4=CC(=O)CC[C@@]43C)[C@@H]1CC[C@@H]2C(=O)Nc1ccc([N+](=O)[O-])c(C(F)(F)F)c1: 56.1 µM (inactive)
8. CCCCCCCCCCCCCCCC(=O)Nc1ccn(C2CCC(COP(=O)(O)OCC3OC(n4cc(F)c(=O)[nH]c4=O)CC3OC(C)=O)O2)c(=O)n1 (stereo not drawn): 2.88 µM (inactive)

###

test system: SW-620; test: NCI tumour cell line growth inhibition, 48 h
Calls of active or inactive are those of the source. Cut-off read from the data, not from the text of the source: active = GI50 up to about 1.1 µM and inactive = higher.
Labels: active, inactive

1. CNCC(=O)Nc1ccc2c(c1)C(=O)c1ccc(NC(=O)CNC)cc1C2=O: inactive
2. CON(C)C(=O)[C@H]1C[C@@]1(C)CO: inactive
3. O=c1[nH]c2nccn2c2c1SCCN2: inactive
4. COc1ccc([Se]c2ccc(OC)cc2OC)c(OC)c1: inactive
5. O=Nc1c(-c2c(O)[nH]c3ccccc23)[nH]c2ccccc12: inactive
6. C[N+](C)(C)CC1Cc2ccccc2C1=O (stereo unspecified): inactive
7. CC1=C(N2CC2)C(=O)c2nc3n(c2C1=O)CCC3O (stereo unspecified): active
8. COC(=O)n1c(=O)n(-c2ccccc2)c(=O)n1C(=O)Nc1ccccc1: inactive
9. Cn1c2ccccc2c(=NNc2ccccc2C(=O)O)c2ccccc21: inactive
10. COC1C(=O)CCC2(CO2)C1(O)C1(C)OC1CCC(C)C (stereo unspecified): inactive
11. COc1cc(C2c3cc4c(cc3[C@@H](Nc3ccc5c(c3)OCO5)C3COC(=O)[C@H]23)OCO4)cc(OC)c1O (stereo partly specified): inactive

###

Recorded GI50 for the following molecules
tested on: CAKI-1; assay: NCI tumour cell line growth inhibition, 48 h
Activity calls are given as the source filed them. Rule as the data show it: active = GI50 up to about 1.1 µM and inactive = higher.
Property Label: GI50

1) CN(C)CCCNC(CC#N)CCC#N (stereo unspecified): > 10 µM (inactive)
2) COc1ccc(-c2ccc(C(=O)C=P(c3ccccc3)(c3ccccc3)c3ccccc3)cc2)cc1: 11.4 µM (inactive)
3) Cc1cc(C)nc(NS(=O)(=O)c2ccc(Nc3c4ccccc4nc4ccc(C(=O)Nc5ccc(S(N)(=O)=O)cc5)cc34)cc2)n1: > 100 µM (inactive)
4) O=S(=O)(O)C(O)/C=C/c1ccccc1 (stereo unspecified): > 100 µM (inactive)
5) CCCC[C@@H](C)/C=C1\CN2CCC[C@H]2[C@@](C)(O)[C@@H]1O: 4.2 µM (inactive)
6) c1cc2nnc1SCCSCCCSCCS2: > 100 µM (inactive)

###

tested on: OVCAR-8; experiment: NCI tumour cell line growth inhibition, 48 h
Active and inactive are the calls of the source. Rule as the data show it: active = GI50 up to about 1.1 µM and inactive = higher.
Recorded GI50 for the following compounds
Property Label: GI50

1) COc1ccc(NC(=O)CC(=O)n2nc(-c3ccccc3)c(/N=N/c3ccccc3C)c2-c2ccccc2)cc1: 28 µM (inactive)
2) O=C(O)c1nc2ccccc2nc1NCc1ccc(F)cc1: 53.2 µM (inactive)
3) O=C(OCN1C(=O)C2C3C=CC(C2C1=O)C1C2C(=O)N(COC(=O)C4CCCN4)C(=O)C2C31)C1CCCN1 (centres undefined): 25.5 µM (inactive)
4) CCN(CC)CCSc1c2ccccc2nc2cc(NCC(=O)Nc3ccccc3-c3ccccc3NC(=O)CNc3ccc4c(SCCN(CC)CC)c5ccccc5nc4c3)ccc12: > 100 µM (inactive)
5) C[C@@H]1OC2(O)[C@H]3CCCN3S(=O)(=O)CCN2C1=O (some centres undefined): > 100 µM (inactive)
6) COc1cc(N(Cc2ccc3nc(OC)c(OC)nc3c2)Cc2ccc3nc(OC)c(OC)nc3c2)cc(OC)c1OC: > 50 µM (inactive)
7) Cc1nc([N+](=O)[O-])cn1-c1nc2ccccn2c1[N+](=O)[O-]: 86.1 µM (inactive)
8) CN1C(c2ccccc2)CC(=NOCc2ccccc2)CC1c1ccccc1 (centres undefined): 21.5 µM (inactive)
9) O=C1O[C@H](COC(=O)c2ccccc2)[C@@H](OC(=O)c2ccccc2)C=C1OC(=O)c1ccccc1: 21.8 µM (inactive)

###

tested on: NCI-H23; assay: NCI tumour cell line growth inhibition, 48 h
Active and inactive are the calls of the source. Rule as the data show it: active = GI50 up to about 1.1 µM and inactive = higher.
Recorded GI50 for the following compounds
Property Label: GI50

1. O=C1CCC[C@]2(CCCC(=O)N2)C1: > 100 µM (inactive)
2. CCOC(=O)c1nnsc1NC(=O)NCCCCCCn1c(=O)n(CCCCCCNC(=O)Nc2snnc2C(=O)OCC)c(=O)n(CCCCCCNC(=O)Nc2snnc2C(=O)OCC)c1=O: 24.9 µM (inactive)
3. CC(=O)C12C[C@](C#N)(N3CCCCCC3)C1C=Cc1ccccc12 (some centres undefined): > 100 µM (inactive)
4. O[C@@]12Cc3c([nH]c4ccccc34)[C@@H]3Oc4c(-c5ccccc5)ccc5c4[C@@]31CCN(CC1CC1)[C@@H]2C5: 1.78 µM (inactive)
